Test system: A498 renal
Experiment: NCI-60 one-dose screen, 48 h (100 = growth as untreated, 0 = no growth, -100 = all killed)
Settings: 10 µM unless noted
Experimental: Growth inhibition of the A498 human tumor cell line is measured as a screen for anti-cancer activity. Cells are grown in 96 well plates and exposed to the test compound for 48 hours. Compounds are tested at a single concentration, which is 10^-5 M for most compounds. The reported endpoint is percent growth (GI% or GIPRCNT), where numbers from 0 - 100% represent growth inhibition, and numbers from -100% - 0 represent cell death. For example, a value of 40 represents 60% growth inhibition. […]
This is part of a sample that, as a whole, favours compounds with a hit. Of some 83,000 tested, about 20% had one in any assay.
hey, just use Satisfied if measured growth is less than 80%, otherwise Not satisfied

Would you please look over these solved cases?
Cc1cccc(NC(=O)CSc2nc3ccc([N+](=O)[O-])cc3[nH]2)c1	Satisfied
COC(=O)C1=C(C(=O)Nc2cccnc2)C2OC1(C(Cc1ccccc1)Oc1ccccc1)C1OC21 (stereo not drawn)	Not satisfied

Consider `N#C/C(=C\c1ccc(Br)cc1)c1cc2ccccc2[nH]1` . Does its growth lie strictly below 80%?
Not satisfied

Try `CCOc1ccc(NC(=O)c2cc(OC)c(OC)c(OC)c2)cc1` next.
Satisfied

How about this compound: `COC(=O)c1ccc2c(c1)c1c(C)c3ccncc3c(C)c1n2C`
Satisfied

Try `O=C1NC(=Nc2ccc(O)cc2)S/C1=C\c1cccs1` next.
Satisfied

Same read-out for `COc1cc(/C=N/Nc2ccccc2F)cc(OC)c1OC` ?
Not satisfied

====

tested on: NCI-H23 lung; assay: NCI-60 one-dose screen, 48 h (100 = growth as untreated, 0 = no growth, -100 = all killed); settings: 10 µM unless noted
This is part of a sample that, as a whole, favours compounds with a hit. Of some 83,000 tested, about 20% had one in any assay.
Lab note: anything with growth below 50% is marked T; values at 50% or higher are marked F.

Oc1c(Cl)cc(Cl)c2ccc(Cn3cc(-c4cccc(C(F)(F)F)c4)nn3)nc12	F
C[C@@H]1CC[C@@]2(OC1)O[C@H]1C[C@H]3[C@@H]4CC=C5C[C@@H](O[C@@H]6O[C@H](CO)[C@@H](O[C@@H]7O[C@@H](CO)[C@H](O)[C@H]7O)[C@H](O)[C@H]6O[C@@H]6O[C@@H](C)[C@H](O)[C@@H](O)[C@H]6O)CC[C@]5(C)[C@H]4CC[C@]3(C)[C@H]1[C@@H]2C	T
COc1cc2cc(NCc3ccc(OC(F)F)cc3)nc(C)c2cc1OC	T
Cc1nn(-c2ccccc2)c(/N=C/N(C)C)c1/C=C/C(=O)c1ccc(Cl)cc1	F
CCN1C(=S)N(CC)C2C1NC(=S)N2/N=C/C=C/c1ccccc1OC (stereo unspecified)	T
C=CC(=O)N1CCN(c2ccc3cccc(NC(=O)c4cnc(C)cn4)c3n2)CC1	F

Is growth strictly under 50% for the entry `Fc1ccc2c(c1)c(-c1nc(-c3c[nH]c4ncccc34)cs1)cn2CCCN1CCOCC1` ?
F

Same for `CCN(CC)CCN(CCN(CC)CC)c1ccccc1`
F

Next entry: `Cc1cccc(N2CCN(C(=S)c3ccc4c(c3)OCO4)CC2)c1`
T

Would you kindly repeat that for `CNCc1cccc2c1OCCOCCN(C)C(=O)CN(C)S(=O)(=O)c1ccc(cc1)-c1cnc(N)c(n1)C(=O)N2` ?
T

Similarly, `Cc1[nH]c(C(=O)Nc2cccc(OC3CCNCC3)c2)c(Cl)c1Cl` ?
F

====

test system: SF-295 CNS; assay: NCI-60 one-dose screen, 48 h (100 = growth as untreated, 0 = no growth, -100 = all killed); settings: 10 µM unless noted
This is part of a sample that, as a whole, favours compounds with a hit. Of some 83,000 tested, about 20% had one in any assay.
measurement name: growth (%)
Respond with the bare value in %.

Recorded growth for O=C(O)C1CN(c2cccc(Cl)c2)N(c2cccc(Cl)c2)C1=O (configuration not stated) , please?
95.6

Item: `CC1(C)OC(=O)C(=Cc2cccc(Br)c2)C(=O)O1`
102

Cool, now `COc1cc2oc(-c3cccc(NC(=O)c4ccc5c(c4)OCO5)c3)cc(=O)c2c(OC)c1OC`
53.9

Okay, and `Cc1ccc(/C=C2\CN(C(=O)C(Cl)Cl)C/C(=C\c3ccc(C)cc3)C2=O)cc1` ?
-7.46

Moving on to `COc1ccc(-c2ccc(-c3ccc(C(=N)N)cn3)s2)cc1`
104

====

system: HOP-62 NSCLC; assay: NCI-60 one-dose screen, 48 h (100 = growth as untreated, 0 = no growth, -100 = all killed); conditions: 10 µM unless noted
The panel holds about 83,000 compounds, 20% with a hit somewhere; the sample as a whole holds those more often.
Please assign a class to every record based on measured growth, with ranges bottom bin: < 30%; middle bin: ≥ 30% and < 90%; top bin: ≥ 90%

Example entries begin here.
CN1CCN(Cc2ccc(NC(=O)c3cncc(C#Cc4cncc5[nH]ncc45)c3)cc2C(F)(F)F)CC1	bottom bin
COC(=O)c1ccc2c(c1)c1c(C)c3ccncc3c(C)c1n2C	bottom bin
O=C(CCl)Nc1ccc2c(Nc3cc(O)ccc3Cl)ncnc2c1	bottom bin
CCN(CCO)CC(C)Nc1ccc([N+](=O)[O-])c2sc3ccccc3c(=O)c12 (configuration not stated)	middle bin
Cc1c(N2CN3C[C@H](C)N4CN(c5c(C)n(C)n(-c6ccccc6)c5=O)CN5C[C@@H](C)N(C2)C3C54)c(=O)n(-c2ccccc2)n1C (some centres not stated)	top bin
COc1ccc(C(c2cc(OC)c(OC)c(OC)c2)N2CCN(Cc3ccccc3)CC2)cc1 (configuration not stated)	middle bin
CN(C)Cc1ccc(C(=O)Nc2ccc3ncnc(Nc4ccc(Oc5cccc(F)c5)c(Cl)c4)c3c2)cc1	middle bin
Cc1cccc(N2CCN(C(=S)c3ccc4c(c3)OCO4)CC2)c1	bottom bin

For this compound, which bin applies? `Cc1c2cc[nH]c(=O)c2c(C)c2c1[nH]c1ccc(OC(=O)c3ccccc3)cc12`
bottom bin

// next record `Cc1ncc(C(=O)Nc2ccc(CN3CCN(C)CC3)c(C(F)(F)F)c2)cc1C#Cc1cnc(N)c2cnccc12`
bottom bin

Subsequent entry: CC1O[C@@H]2C[C@@](O)([C@H]1O)n1c3ccccc3c3c4c(c5c6ccccc6n2c5c31)C(=O)NC4=O (some centres not stated)
bottom bin

====

test system: M14 melanoma; test: NCI-60 one-dose screen, 48 h (100 = growth as untreated, 0 = no growth, -100 = all killed); settings: 10 µM unless noted
This is part of a sample that, as a whole, favours compounds with a hit. Of some 83,000 tested, about 20% had one in any assay.
Label scheme for growth: LOW = under 20%, MEDIUM = from 20% up to 90%, HIGH = 90% and over

As a guide, the following entries are already answered.
COc1cccc(NC(=O)c2cccc(C3CCc4c(cc(OC)c(OC)c4OC)O3)c2)c1 (stereo not given)	MEDIUM
O=P(O)(O)OCC1OC(n2cnc3c(NCc4ccccc4)ncnc32)C(O)C1O (stereo not given)	MEDIUM
COc1cc(/C=C2\C(=O)N(c3c(Cl)cccc3Cl)c3ccccc32)cc(OC)c1OCCCCCCn1c2ccccc2c(=O)c2ccccc21	HIGH

Lab log: `O=C(c1ccc(F)c(Cl)c1)N1c2ccccc2Sc2ccccc21` — assign growth category
MEDIUM

Record: `Cn1c(=O)c2c(c3ccccc31)OC(N)=C(C#N)C21C(=O)c2ccccc2C1=O`
MEDIUM

One more compound: Cc1ccc2[nH]c(=O)c3c(c2c1)OC(N)=C(C#N)C31C(=O)c2cccc3cccc1c23 (stereo not given)
HIGH

And for COC(=O)C1=C(C)NC(C)=C(C(=O)OCC(C)C)C1c1ccccc1[N+](=O)[O-] (stereo not given) ?
MEDIUM

Now the same for `COc1ccc(/C(C)=C(\c2ccc(OCCN3CCCCCC3)cc2)c2ccc(OC(=O)c3ccccc3)cc2)cc1`
LOW

====

test system: SF-268 CNS; experiment: NCI-60 one-dose screen, 48 h (100 = growth as untreated, 0 = no growth, -100 = all killed); settings: 10 µM unless noted
Compounds without any hit were thinned out: in the full panel of roughly 83,000, 20% have a hit.
// boundary case: growth equal to 40% maps to criterion not met; strictly smaller maps to criterion met

CCN(CC)c1ccc(/C=N\NC(=O)c2cccc(Nc3ccnc(C(F)(F)F)c3)c2)c(O)c1	criterion met

# TODO verify growth < 40% strictly for this molecule: Cc1nc2sc(C(=O)Nc3cccc(Cl)c3)c(N)c2cc1C(O)c1ccccc1 (stereo not given)
criterion not met

Next molecule: `CS(=O)(=O)Nc1cncc(-c2ccc3ncnc(Nc4ccc(F)c(Cl)c4)c3c2)c1`
criterion not met

Now this one: O=c1[nH]cnc2c1C(c1ccc(Br)cc1)c1sc3c(F)cccc3c1O2 (stereo not given)
criterion not met

Also check `CCCNc1nc2ccccc2c2c(=O)c3cccc(Cl)c3sc12`
criterion not met
